The molecules listed here are annotated with their inhibition at 3 µM.
Target: RBL-1 cell cyclooxygenase (Rattus norvegicus)
Construct: the supernatant was saved as the source of enzymes; endogenous in cells; host or cells: RBL-1 rat basophilic leukemia cells, homogenate supernatant
Sequence (Q63921 27-602): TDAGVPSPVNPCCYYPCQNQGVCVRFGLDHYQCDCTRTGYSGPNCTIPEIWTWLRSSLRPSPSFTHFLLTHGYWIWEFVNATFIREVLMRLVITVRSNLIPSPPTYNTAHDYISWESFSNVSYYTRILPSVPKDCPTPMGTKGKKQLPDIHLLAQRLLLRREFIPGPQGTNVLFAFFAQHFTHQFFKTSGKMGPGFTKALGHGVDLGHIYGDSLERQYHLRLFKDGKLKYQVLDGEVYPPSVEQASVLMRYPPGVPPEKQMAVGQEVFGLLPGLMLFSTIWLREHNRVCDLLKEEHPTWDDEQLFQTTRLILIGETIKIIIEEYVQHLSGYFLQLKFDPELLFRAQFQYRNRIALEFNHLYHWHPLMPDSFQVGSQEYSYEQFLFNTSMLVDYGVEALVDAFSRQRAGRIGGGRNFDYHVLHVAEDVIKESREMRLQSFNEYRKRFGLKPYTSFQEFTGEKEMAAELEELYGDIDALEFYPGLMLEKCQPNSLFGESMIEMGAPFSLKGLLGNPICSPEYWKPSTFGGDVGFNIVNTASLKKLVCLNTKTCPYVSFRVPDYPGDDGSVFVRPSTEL
Assay: RBL-1 cell cyclooxygenase, cell homogenate supernatant (Procedure II)
Assay type: biochemical
Settings: RBL-1 homogenate, 3 μM; read-out: PROC. II % INHIBITION CO
Method: RBL-1 cell 5-lipoxygenase and cyclooxygenase Rat basophilic leukemia cells (RBL-1; 5×10^7 viable cells/mL) were disrupted by homogenization on ice (four 20 sec bursts) with a Brinkman polytron. Complete cell breakage was verified microscopically. The homogenate was then centrifuged at 10,000×g for 48 minutes at 4° C. […] The dried plates were analyzed using a Bioscan Imaging TLC scanner to determine the percentage of radiolabelled AA converted to 5-HETE in each sample.
READOUT NAME: inhibition at 3 µM (%)

>>> df
                              smiles_record  experimental_value
0  COc1ccc(-n2nc(CSC(=S)N(C)O)cc2-c2ccc(Cl)cc2)cc1                 100
1  COc1ccc(-n2nc(CSC(=S)N(C)O)c(Cl)c2-c2ccc(Cl)cc2)cc1                  75
2  COc1ccc(-n2nc(CSC(=S)N(O)C(C)C)cc2-c2ccc(C)cc2)cc1                  30
3  COc1ccc(-n2nc(CSC(=S)N(O)C(C)C)cc2-c2ccc(Cl)cc2)cc1                 100
4  COc1ccc(-n2nc(CSC(=S)N(C)O)c(Cl)c2-c2ccc(C)cc2)cc1                  95
5  COc1ccc(-n2nc(CSC(=S)N(O)C(C)C)c(Br)c2-c2ccc(Cl)cc2)cc1                   0

###

Biological target: RBL-1 cell 5-lipoxygenase (Rattus norvegicus, UniProt P12527)
Construct: the supernatant was saved as the source of enzymes; endogenous in cells; host or cells: RBL-1 rat basophilic leukemia cells, homogenate supernatant
Sequence (P12527 1-673): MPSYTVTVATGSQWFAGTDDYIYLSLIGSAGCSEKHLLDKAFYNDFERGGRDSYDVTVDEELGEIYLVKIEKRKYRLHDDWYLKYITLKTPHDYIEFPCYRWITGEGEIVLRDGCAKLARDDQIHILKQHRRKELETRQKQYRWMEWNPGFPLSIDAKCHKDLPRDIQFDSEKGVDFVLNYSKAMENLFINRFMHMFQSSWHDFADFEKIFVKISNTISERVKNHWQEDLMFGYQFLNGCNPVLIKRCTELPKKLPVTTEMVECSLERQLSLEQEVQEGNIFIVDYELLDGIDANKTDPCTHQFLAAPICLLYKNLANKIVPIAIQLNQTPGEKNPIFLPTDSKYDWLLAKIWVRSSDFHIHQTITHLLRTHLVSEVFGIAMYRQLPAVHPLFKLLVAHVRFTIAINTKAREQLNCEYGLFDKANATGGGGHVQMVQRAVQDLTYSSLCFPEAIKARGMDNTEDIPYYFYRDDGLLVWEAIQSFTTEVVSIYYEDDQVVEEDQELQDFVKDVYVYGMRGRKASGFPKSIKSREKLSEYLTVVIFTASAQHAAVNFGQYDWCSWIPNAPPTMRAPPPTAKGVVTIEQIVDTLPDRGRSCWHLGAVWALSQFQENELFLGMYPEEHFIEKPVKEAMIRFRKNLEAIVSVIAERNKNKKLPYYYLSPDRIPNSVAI
Test: RBL-1 cell 5-lipoxygenase, cell homogenate supernatant (Procedure II)
Assay type: biochemical
Conditions: RBL-1 homogenate, 3 μM; read-out: PROC. II % INHIBITION 5-LO
READOUT NAME: inhibition at 3 µM (%)

>>> df
                              smiles_record        readout_name  unit_text  experimental_value
0  COc1ccc(-n2nc(CSC(=S)N(O)C(C)C)c(Cl)c2-c2ccc(C)cc2)cc1  inhibition at 3 µM          %                  82
1  COc1ccc(-n2nc(CSC(=S)N(O)C(C)C)cc2-c2ccc(C)cc2)cc1  inhibition at 3 µM          %                  79
2  COc1ccc(-n2nc(CSC(=S)N(O)C(C)C)c(Cl)c2-c2ccc(Cl)cc2)cc1  inhibition at 3 µM          %                  70

###

Target: Sheep seminal vesicle cyclooxygenase (Ovis aries, UniProt P05979)
Construct: Sheep seminal vesicle (SSV) cyclooxygenase (95% pure); purchased Biomol (Plymouth Meeting, Pa.); host or cells: sheep seminal vesicle
Sequence (P05979 25-600): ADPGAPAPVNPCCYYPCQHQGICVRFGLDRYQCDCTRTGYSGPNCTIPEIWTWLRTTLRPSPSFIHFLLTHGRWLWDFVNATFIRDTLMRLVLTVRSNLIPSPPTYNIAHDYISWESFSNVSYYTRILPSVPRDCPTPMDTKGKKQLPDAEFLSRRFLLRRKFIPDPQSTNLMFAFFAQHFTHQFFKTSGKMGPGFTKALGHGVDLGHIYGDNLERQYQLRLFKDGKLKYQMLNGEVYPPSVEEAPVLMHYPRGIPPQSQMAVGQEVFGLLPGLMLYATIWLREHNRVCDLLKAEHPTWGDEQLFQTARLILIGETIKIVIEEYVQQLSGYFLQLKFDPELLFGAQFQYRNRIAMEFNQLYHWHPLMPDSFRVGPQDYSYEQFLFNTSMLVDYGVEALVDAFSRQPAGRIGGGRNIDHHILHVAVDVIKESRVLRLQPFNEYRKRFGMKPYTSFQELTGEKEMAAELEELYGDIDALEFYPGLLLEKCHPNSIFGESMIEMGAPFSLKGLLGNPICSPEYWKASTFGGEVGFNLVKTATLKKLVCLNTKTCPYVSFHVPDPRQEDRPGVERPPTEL
Assay: Sheep seminal vesicle cyclooxygenase (Procedure I)
Assay type: biochemical
Details: read-out: PROC. I % INHIB CO
READOUT NAME: inhibition at 3 µM (%)

                                   compound        readout_name  unit_text  experimental_value
0  COc1ccc(-n2nc(CSC(=S)N(C)O)c(Cl)c2-c2ccc(C)cc2)cc1 [1-H]  inhibition at 3 µM          %                  39
1  COc1ccc(-n2nc(CSC(=S)N(O)C(C)C)c(Cl)c2-c2ccc(C)cc2)cc1 [1-I]  inhibition at 3 µM          %                   0
2  COc1ccc(-n2nc(CSC(=S)N(O)C(C)C)cc2-c2ccc(C)cc2)cc1 [1-G]  inhibition at 3 µM          %                  36
